Tested on: BMKC
Assay Info: Anti-cancer assay, MTT, LD50
Format: cell-based
Particulars: BMKC cloned melanoma line, 24 hours with peptide
No end group written: not given here.
Endpoint: LD50 BMKC (µg/mL)
I only need the number, in µg/mL, no unit after it.

If you can, please state the reported LD50 BMKC value of FALALKLAKKAL-NH2 [P167, FALALKLAKKAL-NH2] .
240

I would be grateful if you could share the reported LD50 BMKC for FAKKLAKKLKKLAKLALAL-OH [P29] .
300

For the substance FAKLLAKLAKAKA-NH2 [P95] , what LD50 BMKC is on record?
820

Look up LD50 BMKC: FAKLWAKLAFGKGIGKVGKKLL-NH2 [P135]
155

// query LD50 BMKC value for entry FKLAFKLAKKAFL-NH2 [P122]
700

Given the substance FKVKFKVKVK-NH2 [P303, reference compound] , what is its reported LD50 BMKC?
330

I am curious: what LD50 BMKC value has been reported for FAKALAKLAKKLL-NH2 [P92] ?
46

What value of measured LD50 BMKC is listed for FAKLLAKALKKFL-NH2 [P118] ?
135

Consider the substance shown here: FAKLLAKLAKKIL-NH2 [P125] What is its recorded LD50 BMKC?
220

Reported LD50 BMKC, substance FKRLAKIKVLRLAKIKR-NH2 [P147] : ____
110

Can you look up the measured LD50 BMKC of FAKLLKLAAKKLL-NH2 [P56] for me?
205

Need LD50 BMKC of FAKLLAKLAKKLL-NH2 [P43] , thanks.
7

# query: LD50 BMKC of entry FAKLLAKALKKLL-NH2 [P55]
16

What LD50 BMKC value was documented for this substance, VAKLLAKLAKKLL-NH2 [P48] ?
43

Quick one: LD50 BMKC for ILPWKWPWWPWRR-COOH [P91, reference compound] ?
180

* * *

Test system: WI38
Particulars: MTT, 24 hours with peptide; normal fibroblast line
No end group written: not given here.
Endpoint: WI38 LD50 (µg/mL)
Kindly provide the numeric value in µg/mL only, without the unit symbol.

GET /values?readout=WI38 LD50&item= FAKLLAKLAKKL-NH2 [P49]
135

Value lookup for WI38 LD50; key = KLALKLALKALKAAKLA-NH2 [P150]
125

For the substance FAKFLAKFLKKAL-NH2 [P111, FAKFLAKFLKKAL-NH2] , what WI38 LD50 is on record?
24

Quick one: WI38 LD50 for FAKLAKKALAKLL-NH2 [P148] ?
380

Returns the measured WI38 LD50 for the input substance. Input: FAKLLAKALKLKL-NH2 [P101]
300

Endpoint output: WI38 LD50 of FAKLLAKLAKKFAL-NH2 [P120, FAKLLAKLAKKFAL-NH2] . Value?
600

Would you kindly share the measured WI38 LD50 for GIGKFLHAAKKFAKAFVAEIMNS-NH2 [P300, reference compound] ?
52

Give the measured WI38 LD50 of FAKLLAKALKKAL-NH2 [P102, FAKLLAKALKKAL-NH2] .
73

Which value of WI38 LD50 has been reported for KYKKALKKLAKLL-NH2 [P146] in the records?
270
